Consider the following molecules; for each one, report its pIC50.
TGT: UniProt:Q9Y5N5
TEST_DESCRIPTION: KMT9 methyltransferase inhibition assay, MTaseGlo luminescence (from entry 155)
Type: biochemical
MEASUREMENT_SETUP: IC50 class; MTaseGlo procedure (entries from 155 on); 100 nM KMT9, 5 μM ETF1, 1 μM SAM; read-out: Inhibition
pIC50: −log10 of the molar value.

Item: CN1CCC([C@H]2C[C@@H](n3cc(-c4ccn(S(=O)(=O)c5ccccc5)n4)c4cnc(Cl)nc43)[C@H](O)[C@@H]2O)CC1 Test system: UniProt:Q9Y5N5 Read-out: pIC50 Value: ?
5.00 to 6.00

Form field: pIC50 recorded for Nc1nc(Cl)nc2c1c(-c1nc(Cc3ccccc3)cs1)cn2[C@@H]1C[C@H](CNCCCNCCc2ccc(F)cc2)[C@@H](O)[C@H]1O with UniProt:Q9Y5N5 (enter value)
6.00 to 7.00

What reported pIC50 corresponds to Nc1ncnc2c1c(Br)cn2[C@@H]1C[C@H](c2ccccc2)[C@@H](O)[C@H]1O on UniProt:Q9Y5N5?
< 5.00

Entry O[C@@H]1[C@H](O)[C@@H](C2CCCN(CC3CC3)C2)C[C@H]1n1cc(-c2nc(Cc3ccccc3)cs2)c2cnc(Cl)nc21 (some centres unmarked) , system UniProt:Q9Y5N5: what pIC50 was measured?
5.00 to 6.00

Tell me reported pIC50 for O[C@@H]1[C@@H](CNCCCNCCc2ccc(F)cc2)C[C@@H](n2cc(-c3cc(Cc4ccccc4)cs3)c3cncnc32)[C@@H]1O , tested with UniProt:Q9Y5N5.
5.00 to 6.00

Provide the documented pIC50 with UniProt:Q9Y5N5 as the system for O[C@@H]1[C@H](O)[C@@H](C2=CCCN(C3CC3)C2)C[C@H]1n1cc(-c2nc(Cc3ccccc3)cs2)c2cnc(Cl)nc21
< 5.00

// map Nc1ncnc2c1ccn2[C@@H]1C[C@H](c2cccc(-c3cncs3)c2)[C@@H](O)[C@H]1O to recorded pIC50 (system: UniProt:Q9Y5N5)
< 5.00

Identify the measured pIC50 of Nc1ncnc2c1ccn2[C@@H]1C[C@H](c2ccc(O)cc2)[C@@H](O)[C@H]1O for UniProt:Q9Y5N5.
< 5.00

What reported pIC50 corresponds to O[C@@H]1[C@H](O)[C@@H](C2CCN(CCc3ccccc3)CC2)C[C@H]1n1cc(-c2nc(Cc3ccccc3)cs2)c2cnc(Cl)nc21 on UniProt:Q9Y5N5?
5.00 to 6.00

Which measured pIC50 belongs to CN1CCC([C@H]2C[C@@H](n3cc(-c4nc(Cc5ccccc5)cs4)c4cnc(Cl)nc43)[C@H](O)[C@@H]2O)CC1 , tested on UniProt:Q9Y5N5?
5.00 to 6.00

What pIC50 appears in the records for this molecule with UniProt:Q9Y5N5? CN1CCC=C([C@H]2C[C@@H](n3cc(-c4nc(Cc5ccccc5)cs4)c4cnc(Cl)nc43)[C@H](O)[C@@H]2O)C1
5.00 to 6.00

pIC50 of CCN1CCC([C@H]2C[C@@H](n3cc(-c4nc(Cc5ccccc5)cs4)c4c(N)nc(Cl)nc43)[C@H](O)[C@@H]2O)CC1 on UniProt:Q9Y5N5?
6.00 to 7.00

Form field - read-out: pIC50; system: UniProt:Q9Y5N5; submitted item: CN(CCCNCCc1ccccc1)C[C@H]1C[C@@H](n2cc(-c3cc(Cc4ccccc4)cs3)c3cncnc32)[C@H](O)[C@@H]1O
5.00 to 6.00

Find pIC50 (UniProt:Q9Y5N5) for the entry O[C@@H]1[C@@H](CNCCCNCCc2ccc(C(F)(F)F)cc2)C[C@@H](n2cc(-c3cc(Cc4ccccc4)cs3)c3cncnc32)[C@@H]1O
< 5.00

So what pIC50 did CCc1cn([C@@H]2C[C@H](c3ccccc3)[C@@H](O)[C@H]2O)c2ncnc(N)c12 get with UniProt:Q9Y5N5?
< 5.00

Which pIC50 is reported with UniProt:Q9Y5N5 for this entry: Nc1ncnc2c1ccn2[C@@H]1C[C@H](c2cccc(O)c2)[C@@H](O)[C@H]1O ?
< 5.00

Item: O[C@@H]1[C@@H](CN(CCCNCCc2ccccc2)c2cn[nH]c2)C[C@@H](n2cc(-c3cccs3)c3cnc(Cl)nc32)[C@@H]1O Test system: UniProt:Q9Y5N5 Read-out: pIC50 Value: ?
6.00 to 7.00

Quick check: pIC50 on UniProt:Q9Y5N5, item CS(=O)(=O)n1ccc(-c2cn([C@@H]3C[C@H](CNCCCNCCc4ccccc4)[C@@H](O)[C@H]3O)c3nc(Cl)ncc23)n1 ?
6.00 to 7.00

API: value(readout= pIC50, system= UniProt:Q9Y5N5, query= O[C@@H]1[C@H](O)[C@@H](C2CCN(CC3CC3)CC2)C[C@H]1n1cc(-c2nc(Cc3ccccc3)cs2)c2cnc(Cl)nc21 )
5.00 to 6.00

Query for UniProt:Q9Y5N5: what pIC50 does the record show for CN(CCCNCCc1ccc(F)cc1)C[C@H]1C[C@@H](n2cc(-c3ccn(C)n3)c3cnc(Cl)nc32)[C@H](O)[C@@H]1O ?
< 5.00

Which measured pIC50 belongs to CN(CCCNCCc1ccc(F)cc1)C[C@H]1C[C@@H](n2cc(-c3ccn(Cc4ccccc4)n3)c3cnc(Cl)nc32)[C@H](O)[C@@H]1O , tested on UniProt:Q9Y5N5?
5.00 to 6.00

Field: pIC50 (UniProt:Q9Y5N5). Entry: Nc1ncnc2c1ccn2[C@@H]1C[C@H](c2ccn[nH]2)[C@@H](O)[C@H]1O
< 5.00

Checklist item: pIC50 tested on UniProt:Q9Y5N5, entry Nc1ncnc2c1ccn2[C@@H]1C[C@H](c2cccc(-c3cnsc3)c2)[C@@H](O)[C@H]1O , value?
< 5.00

Form field - read-out: pIC50; system: UniProt:Q9Y5N5; submitted item: O[C@@H]1[C@H](O)[C@@H](C2=CCCN(CC(F)(F)F)C2)C[C@H]1n1cc(-c2nc(Cc3ccccc3)cs2)c2cnc(Cl)nc21
< 5.00

// lookup pIC50 | system=UniProt:Q9Y5N5 | key= Nc1ncnc2c1ccn2[C@@H]1C[C@H](c2cccc(-c3cscn3)c2)[C@@H](O)[C@H]1O
< 5.00

Form field - read-out: pIC50; system: UniProt:Q9Y5N5; submitted item: O[C@@H]1[C@H](O)[C@@H](C2=CCCN(CC3CC3)C2)C[C@H]1n1cc(-c2nc(Cc3ccccc3)cs2)c2cnc(Cl)nc21
5.00 to 6.00

###

TGT: KMT9 (Homo sapiens, UniProt Q9Y5N5)
Sequence (Q9Y5N5 whole entry): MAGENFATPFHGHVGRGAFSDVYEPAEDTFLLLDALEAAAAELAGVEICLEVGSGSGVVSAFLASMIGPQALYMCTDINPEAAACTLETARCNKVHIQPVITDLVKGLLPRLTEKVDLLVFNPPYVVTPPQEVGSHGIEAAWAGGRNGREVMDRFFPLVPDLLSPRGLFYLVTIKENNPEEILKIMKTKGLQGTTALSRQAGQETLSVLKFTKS
Sequence (Q9UI30 1-120 isoform Q9UI30-2 partner): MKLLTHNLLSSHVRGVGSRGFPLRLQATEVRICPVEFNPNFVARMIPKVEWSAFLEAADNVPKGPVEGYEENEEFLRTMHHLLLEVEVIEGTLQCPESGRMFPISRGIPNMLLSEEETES
TEST_DESCRIPTION: Microscale thermophoresis (MST) KMT9 binding
MEASUREMENT_SETUP: microscale thermophoresis, His-tag labelled KMT9 (20 nM); read-out: MST
pKd: −log10 of the molar value.
MEASURED_ENDPOINT: pKd

Can you look up the measured pKd of O[C@@H]1[C@@H](CNCCCNCCc2ccccc2)C[C@@H](n2cc(-c3cc(Cc4ccccc4)cs3)c3cnc(Cl)nc32)[C@@H]1O [Compound 621] for me?
6.00 to 7.00

Which pKd value belongs to CNc1ncnc2c1ccn2[C@@H]1C[C@H](CN2CCC23CCNC3)[C@@H](O)[C@H]1O (some centres unmarked) [446 (318)] ?
< 6.00

Report pKd for Nc1ncnc2c1c(C1CCOCC1)cn2[C@@H]1C[C@H](CNCCCNCCc2ccccc2)[C@@H](O)[C@H]1O [479 (353)] please.
6.00 to 7.00

What pKd value was documented for this compound, CNc1ncnc2c1ccn2[C@@H]1C[C@H](CN(C[C@H]2CCCNC2)c2cncs2)[C@@H](O)[C@H]1O [438 (310)] ?
< 6.00

pKd lookup needed for Nc1ncnc2c1c(-c1nccs1)cn2[C@@H]1C[C@H](CC2CNC2)[C@@H](O)[C@H]1O [Compound 486] , thanks.
< 6.00

###

TGT: UniProt Q9Y5N5
TEST_DESCRIPTION: KMT9 thermal shift assay (SyproOrange)
Format: binding
MEASUREMENT_SETUP: ΔTm; 500 µM compound, 2 μM KMT9, 5X SO; read-out: Thermal shift
Please respond with reported ΔTm at 500 µM for every item in the list.

// query ΔTm at 500 µM value for entry CCc1cn([C@@H]2C[C@H](CNCCCNCCc3ccccc3)[C@@H](O)[C@H]2O)c2ncnc(N)c12
10 to 15 °C

// returns reported ΔTm at 500 µM for input CN1CCC([C@H]2C[C@@H](n3cc(-c4ccn(Cc5ccccc5)n4)c4c(N)nc(Cl)nc43)[C@H](O)[C@@H]2O)CC1
> 20 °C

Sample CNc1ncnc2c1ccn2[C@@H]1C[C@H](CNC[C@H]2CCCNC2)[C@@H](O)[C@H]1O — what was its ΔTm at 500 µM?
≤ 10 °C
